Reported Ki values follow for various molecules
- system-tested: FKBP51 (Homo sapiens)
- Sequence (Q13451 42-130 limits assumed): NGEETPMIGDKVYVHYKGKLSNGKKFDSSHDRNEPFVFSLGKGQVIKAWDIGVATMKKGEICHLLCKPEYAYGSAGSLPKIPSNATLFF
- protocol-text: Fluorescence polarization binding assay, FK1-domain of FKBP51WT with tracer F4
- Parameters: Purified FK1-domains of FKBP51WT (4.5 nM) with F4 (3 nM), FKBP52WT (400 nM) with F2 (20 nM); made in house; host or cells: E. coli BL21(DE3)pLysS
- assay-setup: compounds B01-C25; read-out: Affinity(Ki) for FKBP51

{"smi": "COc1cc([C@@H](C(=O)N2CCCC[C@H]2C(=O)OC(C)(C)C)C2CCCCC2)cc(OC)c1OC", "system-tested": "FKBP51 (Homo sapiens)", "Ki": "1 to 10 µM"}

Find the recorded Ki belonging to COc1cc([C@@H](C(=O)N2CCCC[C@H]2C(=O)NC2(C(N)=O)CCCC2)C2CCCCC2)cc(OC)c1OC and report it.
0.1 to 1 µM

Find the recorded Ki belonging to COc1cc([C@@H](C(=O)N2CCCC[C@H]2C(=O)N[C@H](CCC(N)=O)C(N)=O)C2CCCCC2)cc(OC)c1OC and report it.
1 to 10 µM

Find the recorded Ki belonging to COc1cc([C@@H](C(=O)N2CCCC[C@H]2C(=O)N[C@@H](CO)C(N)=O)C2CCCCC2)cc(OC)c1OC and report it.
1 to 10 µM

Find the recorded Ki belonging to COc1cc([C@@H](C(=O)N2CCCC[C@H]2C(=O)N[C@H](C(N)=O)C(C)C)C2CCCCC2)cc(OC)c1OC and report it.
10 to 50 µM

Find the recorded Ki belonging to COc1cc([C@@H](C(=O)N2CCCC[C@H]2C(=O)N[C@@H](C)C(N)=O)C2CCCCC2)cc(OC)c1OC and report it.
1 to 10 µM

Find the recorded Ki belonging to COc1cc([C@@H](C(=O)N2CCCC[C@H]2C(=O)O[C@H](C)COCc2ccccc2)C2CCCCC2)cc(OC)c1OC and report it.
1 to 10 µM

Find the recorded Ki belonging to COc1cc([C@@H](C(=O)N2CCCC[C@H]2C(=O)N[C@H](Cc2ccccc2)C(N)=O)C2CCCCC2)cc(OC)c1OC and report it.
1 to 10 µM

Find the recorded Ki belonging to COCCCCOC(=O)[C@@H]1CCCCN1C(=O)[C@H](c1cc(OC)c(OC)c(OC)c1)C1CCCCC1 and report it.
1 to 10 µM

Find the recorded Ki belonging to C=CCOC(=O)[C@@H]1CCCCN1C(=O)[C@H](c1cc(OC)c(OC)c(OC)c1)C1CCCCC1 and report it.
10 to 50 µM

Find the recorded Ki belonging to COc1cc([C@@H](C(=O)N2CCCC[C@H]2C(=O)OCCOCc2ccccc2)C2CCCCC2)cc(OC)c1OC and report it.
1 to 10 µM

====

- system-tested: FKBP52 (Homo sapiens, UniProt Q02790)
- Construct: Purified FK1-domains of FKBP51WT (4.5 nM) with F4 (3 nM), FKBP52WT (400 nM) with F2 (20 nM); implied by Ni-NTA purification) (N); made in house; host or cells: E. coli BL21(DE3)pLysS
- Sequence (Q02790 50-138 limits assumed): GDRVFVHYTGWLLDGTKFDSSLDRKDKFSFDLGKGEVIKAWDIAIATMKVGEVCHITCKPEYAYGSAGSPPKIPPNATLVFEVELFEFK
- protocol-text: Fluorescence polarization binding assay, FK1-domain of FKBP52WT with tracer F2 (selectivity FKBP51 vs. FKBP52)
- assay-setup: selectivity factor over FKBP52; FKBP52WT (400 nM) with F2 (20 nM); A series
measured-metric: Ki(FKBP51)/Ki(FKBP52)

Check out these entries, answers already filled in.
{"compound": "C=CC[C@H](C(=O)N1CCCC[C@H]1C(=O)OC(CCCc1cccnc1)CCCc1cccnc1)c1cc(OC)c(OC)c(OC)c1 [Compound A04]", "measured-metric": "Ki(FKBP51)/Ki(FKBP52)", "result": "+ (>5 +)"}
{"compound": "COc1cc([C@@H](C(=O)N2CCCC[C@H]2C(=O)OC(CCCc2cccnc2)CCCc2cccnc2)[C@@H]2C=CCCC2)cc(OC)c1OC [Compound A13]", "measured-metric": "Ki(FKBP51)/Ki(FKBP52)", "result": "+++ (>500 +++)"}
{"compound": "COc1ccc(CCC(NC(=O)[C@@H]2CCCCN2C(=O)[C@H](c2cc(OC)c(OC)c(OC)c2)[C@@H]2C=CCCC2)c2cccc(OCC(=O)O)c2)cc1OC (stereo partly shown) [Compound A16]", "measured-metric": "Ki(FKBP51)/Ki(FKBP52)", "result": "++ (>50 ++)"}
{"compound": "COc1ccc(CC[C@@H](OC(=O)[C@@H]2CCCCN2C(=O)[C@@H](Cc2ccccc2)c2cc(OC)c(OC)c(OC)c2)c2cccc(OCC(=O)O)c2)cc1OC [Compound A10]", "measured-metric": "Ki(FKBP51)/Ki(FKBP52)", "result": "+ (>5 +)"}
{"compound": "COc1ccc(CC[C@@H](OC(=O)[C@@H]2CCCCN2C(=O)[C@H](c2cccc(F)c2)C2CCCCC2)c2cccc(OCC(=O)O)c2)cc1OC [Compound A36]", "measured-metric": "Ki(FKBP51)/Ki(FKBP52)", "result": "+++ (>500 +++)"}
{"compound": "C=CC[C@H](C(=O)N1CCCC[C@H]1C(=O)N[C@H](CCc1ccc(OC)c(OC)c1)c1cccc(OCCN2CCOCC2)c1)c1cc(OC)c(OC)c(OC)c1 [Compound A05]", "measured-metric": "Ki(FKBP51)/Ki(FKBP52)", "result": "+ (>5 +)"}
{"compound": "COc1ccc(CCC(OC(=O)[C@@H]2CCCCN2C(=O)C(NC(=O)c2ccccn2)C2CCCCC2)c2cccc(OCC(=O)O)c2)cc1OC (stereo partly shown) [Compound A25]", "measured-metric": "Ki(FKBP51)/Ki(FKBP52)", "result": "+ (>5 +)"}
{"compound": "COc1ccc(CCC(OC(=O)[C@@H]2CCCCN2C(=O)[C@H](NC(=O)c2ccccc2)C2CCCCC2)c2cccc(OCC(=O)O)c2)cc1OC (stereo partly shown) [Compound A23]", "measured-metric": "Ki(FKBP51)/Ki(FKBP52)", "result": "+ (>5 +)"}

Enter reported Ki(FKBP51)/Ki(FKBP52) observed with FKBP52 (Homo sapiens, UniProt Q02790) for COc1ccc(OCCOC(=O)[C@@H]2CCCCN2C(=O)[C@H](c2cc(OC)c(OC)c(OC)c2)C2C=CCCC2)cc1OC (stereo in doubt) [Compound A14]
++ (>50 ++)

Enter reported Ki(FKBP51)/Ki(FKBP52) observed with FKBP52 (Homo sapiens, UniProt Q02790) for COc1ccc(CCC(OC(=O)[C@@H]2CCCCN2C(=O)C(NC(=O)C2N=CN=N2)C2CCCCC2)c2cccc(OCC(=O)O)c2)cc1OC (stereo partly shown) [Compound A27]
+ (>5 +)

Enter reported Ki(FKBP51)/Ki(FKBP52) observed with FKBP52 (Homo sapiens, UniProt Q02790) for COc1ccc(CCC(OC(=O)[C@@H]2CCCCN2C(=O)C(NC(=O)C2CCCCC2)C2CCCCC2)c2cccc(OCC(=O)O)c2)cc1OC (stereo partly shown) [Compound A26]
+ (>5 +)

Enter reported Ki(FKBP51)/Ki(FKBP52) observed with FKBP52 (Homo sapiens, UniProt Q02790) for COc1ccc(CCC(OC(=O)C2CCCN2C(=O)[C@H](c2cc(OC)c(OC)c(OC)c2)C2C=CCCC2)c2cccc(OCCN3CCOCC3)c2)cc1OC (stereo in doubt) [Compound A15]
+++ (>500 +++)

Enter reported Ki(FKBP51)/Ki(FKBP52) observed with FKBP52 (Homo sapiens, UniProt Q02790) for COc1ccc(CCC(OC(=O)[C@@H]2CCCCN2C(=O)C(NC(=O)c2ccccc2O)C2CCCCC2)c2cccc(OCC(=O)O)c2)cc1OC (stereo partly shown) [Compound A24]
+ (>5 +)

Enter reported Ki(FKBP51)/Ki(FKBP52) observed with FKBP52 (Homo sapiens, UniProt Q02790) for C=CC[C@H](C(=O)N1CC=CC[C@H]1C(=O)O[C@H](CCc1ccc(OC)c(OC)c1)c1cccc(OCCN2CCOCC2)c1)c1cc(OC)c(OC)c(OC)c1 [Compound A06]
+ (>5 +)

Enter reported Ki(FKBP51)/Ki(FKBP52) observed with FKBP52 (Homo sapiens, UniProt Q02790) for COc1ccc(CC[C@@H](NC(=O)[C@@H]2CCCCN2C(=O)[C@H](c2cc(OC)c(OC)c(OC)c2)C2CCCCC2)c2cccc(OCC(=O)O)c2)cc1OC [Compound A22]
++ (>50 ++)

Enter reported Ki(FKBP51)/Ki(FKBP52) observed with FKBP52 (Homo sapiens, UniProt Q02790) for COc1ccc(CCC(OC(=O)C2CCCCN2C(=O)[C@H](c2cc(OC)c(OC)c(OC)c2)[C@@H]2C=CCCC2)c2cccc(OCCN3CCOCC3)c2)cc1OC (stereo in doubt) [Compound A12]
+++ (>500 +++)

Enter reported Ki(FKBP51)/Ki(FKBP52) observed with FKBP52 (Homo sapiens, UniProt Q02790) for COc1cc([C@@H](C(=O)N2CCCC[C@H]2C(=O)OC(CCCc2cccnc2)CCCc2cccnc2)C2CCCCC2)cc(OC)c1OC [Compound A19]
+++ (>500 +++)

Enter reported Ki(FKBP51)/Ki(FKBP52) observed with FKBP52 (Homo sapiens, UniProt Q02790) for COc1ccc(OCCOC(=O)[C@@H]2CCCCN2C(=O)[C@H](c2cc(OC)c(OC)c(OC)c2)C2CCCCC2)cc1OC [Compound A20]
++ (>50 ++)

Enter reported Ki(FKBP51)/Ki(FKBP52) observed with FKBP52 (Homo sapiens, UniProt Q02790) for COc1ccc(CCC(OC(=O)[C@@H]2CCCCN2C(=O)C(NC(=O)c2cc(Cl)cc(Cl)c2)C2CCCCC2)c2cccc(OCC(=O)O)c2)cc1OC (stereo partly shown) [Compound A28]
+ (>5 +)

Enter reported Ki(FKBP51)/Ki(FKBP52) observed with FKBP52 (Homo sapiens, UniProt Q02790) for COc1ccc(CC[C@@H](OC(=O)[C@@H]2CCCCN2C(=O)[C@H](c2cc(OC)c(OC)c(OC)c2)[C@@H]2C=CCCC2)c2cccc(OCC(=O)O)c2)cc1OC [Compound A11]
+++ (>500 +++)
